Source of measurements: PubChem BioAssay

target: Protein kinase 7 (PK7), Plasmodium falciparum 3D7 (PF3D7_0213400) (UniProt Q7YTF7); experiment: inhibition of Plasmodium PK7 catalytic activity – biochemical, TCAMS antimalarial set, Kinase-Glo luminescence (AID 1159587); details: recombinant PfPK7, Kinase-Glo ATP depletion luminescence
Active and inactive are the calls of the source. The rule behind the calls is not given here.
observable: outcome

Past entries and their recorded results:
molecule | outcome
CC(C)(CNC(=O)C1CCN(CCOc2ccc(Cl)cc2)CC1)c1nc(-c2ccc(Cl)c(O)c2)c(-c2ccncc2)[nH]1 | inactive
O=C(NCCN1CCCCC1)c1cccc(Nc2nccc(Nc3ccc(Oc4ccccc4)cc3)n2)c1 | inactive
Cn1c(-c2ccccc2)cc2c3c(N)nc(N)nc3ccc21 | inactive
CCC(C)NC(=O)Nc1ccc(-c2cccc(-c3nc4c(C)cccc4[nH]3)c2)cc1 (stereo not given) | inactive
CC(=O)N1N=C(c2ccc(F)cc2)Sc2c1nc(C1CCCCC1)n2C(C)=O | inactive
O=C(Nc1cccc(CN2CCCN(Cc3cccc(O)c3)CC2)c1)c1cc2ccccc2s1 | inactive

Let's switch to this molecule now.
query: # input molecule: COc1ccc(C(=O)Nc2ccc(Cl)cc2C(=O)Nc2ccncc2)cc1 ; wanted: its outcome
result: inactive

====

target: L-lactate dehydrogenase (Plasmodium falciparum (isolate CDC / Honduras)) (UniProt Q27743); experiment: PfLDH activity inhibition – cell lysate, 3D7 strain, counter-screen for P. falciparum growth inhibition project (AID 2304);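 note: 0% = vehicle and 100% = reference inhibitor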; conditions: P. falciparum 3D7 crude extract, LDH APAD/NBT absorbance; at 2 µM; stronger effect = higher value
Sequence (Q27743 whole entry, looked up): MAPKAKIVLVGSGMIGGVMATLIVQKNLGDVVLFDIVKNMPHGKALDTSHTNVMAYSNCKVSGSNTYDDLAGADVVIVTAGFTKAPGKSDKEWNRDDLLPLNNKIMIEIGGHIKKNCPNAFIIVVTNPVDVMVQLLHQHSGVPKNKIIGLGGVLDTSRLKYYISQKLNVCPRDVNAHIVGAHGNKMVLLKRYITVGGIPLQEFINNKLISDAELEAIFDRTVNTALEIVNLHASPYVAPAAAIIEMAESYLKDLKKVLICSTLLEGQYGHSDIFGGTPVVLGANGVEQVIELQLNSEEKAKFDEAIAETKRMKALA
observable: inhibition (%)
Just the number in %, nothing appended.

compound | unit-name | inhibition
COc1ccc(Cc2c(Cl)nc3nc(N)nc(N)c3c2C)cc1 | % | 6

query: # input compound: CN(C)c1ccc2nc(N)nc(N)c2c1Cl ; wanted: its inhibition
result: 2

====

Quick list: inhibition per entry.
assay: polyglutamine-triggered caspase-3 activation inhibitors, cell-based (AID 1583); details: polyglutamine-induced caspase-3 activation, cell assay; stronger effect = higher value;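 tested at 10 µM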
Bridge positions count the residues as written; N and C are the ends. Square brackets hold non-standard residues; d marks the D form. Peptide text beside a SMILES is read from it. * marks the point of attachment. ξ: configuration not given here. ξDab(CH2SO3H) = NC(CCNCS(=O)(=O)O)C(=O)O; Heptanoyl(6-Me) = CC(C)CCCCC(=O)*; Dab = NCC[CH](N)C(=O)O

Past entries and their recorded results:
molecule | inhibition
CC1(C)C2CC[C@]3(C)C(C(=O)C=C4[C@@H]5C[C@@](C)(C(=O)O)CC[C@]5(C)CC[C@]43C)[C@@]2(C)CC[C@@H]1OC(=O)CCC(=O)O (stereo partly drawn) | 59.3%
CC(=O)O[C@H]1C(=O)[C@@]2(C)C([C@H](OC(=O)c3ccccc3)[C@]3(O)C[C@H](OC(=O)[C@H](O)[C@@H](NC(=O)c4ccccc4)c4ccccc4)C(C)=C1C3(C)C)[C@]1(OC(C)=O)CO[C@@H]1C[C@@H]2O (stereo partly drawn) | 28.3%
CCC(C)C1NC(=O)C(CCNCS(=O)(=O)O)NC(=O)C(NC(=O)C(CCNCS(=O)(=O)O)NC(=O)C(NC(=O)C(CCNCS(=O)(=O)O)NC(=O)CCCCC(C)C)C(C)O)CCNC(=O)C(C(C)O)NC(=O)C(CCNCS(=O)(=O)O)NC(=O)C(CCNCS(=O)(=O)O)NC(=O)C(C(C)CC)NC1=O (stereo not drawn) ({Heptanoyl(6-Me)}-[ξDab(CH2SO3H)]T[ξDab(CH2SO3H)][Dab][ξDab(CH2SO3H)]II[ξDab(CH2SO3H)][ξDab(CH2SO3H)]T; lactam 4-C; configuration not given here) | 16.7%

query: # input molecule: Nc1ccn(C2O[C@H](CO)[C@@H](O)[C@@H]2O)c(=O)n1 (stereo partly drawn) ; wanted: its inhibition
result: 26%

query: # input molecule: C=C[C@@]1(C)CC(=O)[C@@]2(O)[C@](C)(O1)[C@@H](OC(C)=O)[C@@H](O)C1C(C)(C)CC[C@H](O)[C@@]12C (stereo partly drawn) ; wanted: its inhibition
result: 4.06%

query: # input molecule: CO[C@H]1C[C@H](O[C@H]2[C@H](C)[C@@H](OC3O[C@H](C)C[C@H](N(C)C)[C@H]3O)[C@@H](C)C[C@]3(CO3)C(=O)[C@H](C)[C@@H](O)[C@@H](C)[C@@H](C)OC(=O)[C@@H]2C)O[C@@H](C)[C@@H]1O (stereo partly drawn) ; wanted: its inhibition
result: 27%

query: # input molecule: NC(Cc1cc(I)c(Oc2ccc(O)c(I)c2)c(I)c1)C(=O)O (stereo not drawn) ; wanted: its inhibition
result: 2%
